Entries and their measured Ki follow.
- target.or.system: recombinant RORγ Ligand Binding Domain (LBD) protein (Homo sapiens (Human), UniProt P51449)
- Sequence (P51449 269-508): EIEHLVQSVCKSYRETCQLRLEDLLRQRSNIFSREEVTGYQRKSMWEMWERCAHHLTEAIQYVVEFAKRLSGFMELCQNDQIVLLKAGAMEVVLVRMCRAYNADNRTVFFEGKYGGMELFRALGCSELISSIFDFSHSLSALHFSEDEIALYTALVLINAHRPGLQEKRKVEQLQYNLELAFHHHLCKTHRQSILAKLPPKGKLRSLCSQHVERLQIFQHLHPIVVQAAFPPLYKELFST
- procedure.text: Radio-Ligand RORγ Binding Assay (Assay 1)
- conditions.used: competition with 25-hydroxy[26,27-3H]-cholesterol, SPA; read-out: RORγ Binding Ki Range* (nM) (Assay 1)
measured.endpoint: Ki

[[record]]
compound = "CC[C@@H]1c2ccc(C(=O)NCc3ccc(S(=O)(=O)NC)cn3)cc2CN1C[C@H]1CC[C@H](C(F)(F)F)CC1 [Compound 23b]"
result = "< 100 nM"

[[record]]
compound = "CCS(=O)(=O)N1CCC(CNC(=O)c2ccc3c(c2)CN(CC2CCC(OC)(C(F)(F)F)CC2)C3C(C)C)CC1 (single isomer, unassigned) [Compound 13b]"
result = "< 100 nM"

[[record]]
compound = "CC[C@H]1c2ccc(C(=O)NCc3ccc(S(=O)(=O)NC)cc3)cc2CN1C[C@H]1CC[C@H](C(F)(F)F)CC1"
result = "< 100 nM"

[[record]]
compound = "CCS(=O)(=O)c1ccc([C@H](CO)NC(=O)c2ccc3c(c2)C(=O)N(Cc2ccc(C(F)(F)F)cc2)C3C(C)C)cc1 (some centres unmarked)"
result = "< 100 nM"

[[record]]
compound = "CCS(=O)(=O)c1ccc(CNC(=O)c2ccc3c(c2)CN(CC2CCC(C(F)(F)F)OC2)[C@H]3C(C)C)nc1 (single isomer, unassigned) [Compound 16a]"
result = "< 100 nM"

[[record]]
compound = "CCS(=O)(=O)c1ccc(CNC(=O)c2ccc3c(c2)CN(CC2CCC(O)(C(F)(F)F)CC2)C3C(C)C)cc1 (single isomer, unassigned) [Compound 12b]"
result = "< 100 nM"

[[record]]
compound = "CC(C)[C@@H]1c2ccc(C(=O)NCC3CCN(S(C)(=O)=O)CC3)cc2CN1C[C@H]1CC[C@H](C(F)(F)F)CC1"
result = "100 to 1000 nM"

[[record]]
compound = "CCS(=O)(=O)c1ccc([C@@H](CO)NC(=O)c2ccc3c(c2)CN(C[C@H]2CC[C@H](C(F)(F)F)CC2)[C@@H]3C(C)C)cc1"
result = "< 100 nM"

[[record]]
compound = "CCC1(C)c2ccc(C(=O)NCc3ccc(S(=O)(=O)CC)cc3)cc2C(=O)N1CC1CCC(C(F)(F)F)CC1 (centres unmarked)"
result = "> 1000 nM"

[[record]]
compound = "COC1(C(F)(F)F)CCC(CN2Cc3cc(C(=O)NCC4CCN(S(C)(=O)=O)CC4)ccc3[C@@H]2C(C)C)CC1 (single isomer, unassigned) [Compound 14b]"
result = "< 100 nM"

[[record]]
compound = "CCS(=O)(=O)c1ccc([C@@H](CO)NC(=O)c2ccc3c(c2)CN(C[C@H]2CC[C@H](C(F)(F)F)CC2)[C@H]3C(C)C)cc1"
result = "< 100 nM"

[[record]]
compound = "CC[C@H]1c2ccc(C(=O)NCc3ccc(S(=O)(=O)NC)cn3)cc2CN1C[C@H]1CC[C@H](C(F)(F)F)CC1 [Compound 23a]"
result = "< 100 nM"

[[record]]
compound = "CCO[C@H]1CC[C@H](CN2Cc3cc(C(=O)NCc4ccc(S(=O)(=O)CC)cn4)ccc3[C@H]2C(C)C)CC1 (single isomer, unassigned)"
result = "> 1000 nM"

[[record]]
compound = "CCS(=O)(=O)N1CCC(CNC(=O)c2ccc3c(c2)CN(CC2CCC(OC)(C(F)(F)F)CC2)C3C(C)C)CC1 (single isomer, unassigned) [Compound 13a]"
result = "< 100 nM"

[[record]]
compound = "CCS(=O)(=O)c1ccc([C@H](CCO)NC(=O)c2ccc3c(c2)CN(C[C@H]2CC[C@H](C(F)(F)F)CC2)[C@H]3C(C)C)cc1"
result = "< 100 nM"

[[record]]
compound = "CCS(=O)(=O)c1ccc([C@H](CO)NC(=O)c2ccc3c(c2)CN(C[C@H]2CC[C@H](C(F)(F)F)CC2)[C@@H]3C(C)C)cc1"
result = "< 100 nM"

[[record]]
compound = "CCS(=O)(=O)N1CCC(CNC(=O)c2ccc3c(c2)CN(CC2CCC(OC)(C(F)(F)F)CC2)C3C(C)C)CC1 (centres unmarked) [Compound 13c and 13d]"
result = "100 to 1000 nM"

[[record]]
compound = "CCS(=O)(=O)c1ccc(CNC(=O)c2ccc3c(c2)C(=O)N(Cc2ccc(C(F)(F)F)cc2)C3C(C)C)cc1 (single isomer, unassigned) [Compound 26a]"
result = "< 100 nM"

[[record]]
compound = "CC[C@H]1c2ccc(C(=O)N[C@@H](COC(N)=O)c3ccc(S(=O)(=O)CC)cc3)cc2CN1C[C@H]1CC[C@H](C(F)(F)F)CC1 (single isomer, unassigned) [Compound 24b]"
result = "< 100 nM"

[[record]]
compound = "CC[C@H]1c2ccc(C(=O)N[C@@H](COC(N)=O)c3ccc(S(=O)(=O)CC)cc3)cc2CN1C[C@H]1CC[C@H](C(F)(F)F)CC1 (single isomer, unassigned) [Compound 24a]"
result = "< 100 nM"

[[record]]
compound = "CCS(=O)(=O)c1ccc(CNC(=O)c2ccc3c(c2)CN(CC2CCC(O)(C(F)(F)F)CC2)C3C(C)C)cc1 (single isomer, unassigned) [Compound 12a]"
result = "< 100 nM"

[[record]]
compound = "CCS(=O)(=O)c1ccc(CNC(=O)c2ccc3c(c2)C(=O)N(Cc2ccc(C(F)(F)F)cc2)C3C(C)C)nc1 (centres unmarked)"
result = "< 100 nM"

[[record]]
compound = "CCS(=O)(=O)c1ccc(CNC(=O)c2ccc3c(c2)CN(C[C@H]2CO[C@H](C(F)(F)F)OC2)[C@H]3C(C)C)nc1 (single isomer, unassigned) [Compound 32a]"
result = "< 100 nM"


Source listed as patent US9845308B2.
